target-desc: CMV-polymerase (Human cytomegalovirus (strain AD169) (HHV-5) (Human herpesvirus 5), UniProt P08546)
procedure-details: biochemical
condition-info: CMV-polymerase Biochemical IC50
Measured log10 IC50, listed per entry for reference.
Note the log scale: values are log10 of IC50 expressed in nM.

1. Cn1nc(-c2nnc(Cc3ccc(C#N)cc3)o2)c2c1C(=O)N(CC1(S(=O)(=O)C3CC3)CC1)CC2	1.72
2. COCC(C)(CO)S(=O)(=O)C1(CN2CCc3c(C(=O)NCc4ccc(C#N)cc4)nn(C)c3C2=O)CC1 (single isomer, unassigned) [Example 181]	0.60
3. CC1(C)CNCCOCCn2nc(C(=O)NCc3ccc(C#N)cc3)c3c2C(=O)N(CC3)CC2(CC2)S1(=O)=O	0.78
4. CC(O)Cn1nc(C(=O)NCc2ccc(C#N)cc2)c2c1C(=O)N(CC1(S(=O)(=O)C3CC3)CC1)CC2 (single isomer, unassigned) [Example 226]	0.30
5. CC(O)CC(C)(C)S(=O)(=O)C1(CN2CCc3c(C(=O)NCc4ccc(C#N)cc4)nn(C)c3C2=O)CC1 (single isomer, unassigned) [Example 115]	0.48

Please turn your attention to the following entry.
Measured log10 IC50, "CC(C)(O)Cn1nc(C(=O)NCc2ccc(Cl)cc2)c2c1C(=O)N(CC1(S(=O)(=O)C3CC3)CC1)CC2" : 0.00

====

In this section, each of the compounds is paired with its reported IC50.
target-desc: CMV-polymerase (Human cytomegalovirus (strain AD169) (HHV-5) (Human herpesvirus 5), UniProt P08546)
procedure-details: biochemical
condition-info: read-out: CMV-polymerase Biochemical IC50
Use nM as the unit, but write only the number.

Examples from the recorded data:
1. Cn1nc(C(=O)NCc2ccc(C#N)cc2)c2c1C(=O)N(CC1(S(=O)(=O)N3CC[C@@H](O)C3)CC1)CC2	4
2. CC(C)(CO)S(=O)(=O)C1(CN2CCc3c(C(=O)NCc4ccc(C#N)cc4)nn(CCOCCBr)c3C2=O)CC1	1
3. Cn1nc(C(=O)NCc2ccc(C#N)cc2)c2c1C(=O)N(CC1(S(=O)(=O)C(C)(C)COC(F)F)CC1)CC2	1
4. C[C@@H](NC(=O)c1nn(C)c2c1CCN(CC1(S(=O)(=O)C(C)(C)CO)CC1)C2=O)c1ccc(C#N)cc1	601
5. Cc1cccc(NS(=O)(=O)C2(CN3CCc4c(C(=O)NCc5ccc(C#N)cc5)nn(C)c4C3=O)CC2)n1	2
6. CC(C)(O)Cn1nc(C(=O)NCc2ccc(C#N)cc2)c2c1C(=O)N(CC1(S(=O)(=O)C3(CO)CC3)CC1)CC2	1

Next, consider the following compound.
Documented IC50 of "COc1ncccc1NS(=O)(=O)C1(CN2CCc3c(C(=O)NCc4ccc(C#N)cc4)nn(C)c3C2=O)CC1" : 1

====

target-desc: CMV-polymerase (Human cytomegalovirus (strain AD169) (HHV-5) (Human herpesvirus 5))
procedure-details: biochemical
condition-info: read-out: CMV-polymerase Biochemical IC50
A collection of compounds and their measured IC50
Give the number; nM is assumed, so skip it.

Consider the following illustrative entries.
1. CC(C)(O)Cn1nc(C(=O)NCc2ccc(C#N)cc2)c2c1C(=O)N(CC1(S(=O)(=O)C3CC3)CC1)CC2	1
2. CC1=NOC(C(C)(C)S(=O)(=O)C2(CN3CCc4c(C(=O)NCc5ccc(C#N)cc5)nn(C)c4C3=O)CC2)C1 (single isomer, unassigned) [Example 112]	2

--- query ---
# IC50 (compound: CC1=NOC(C(C)(C)S(=O)(=O)C2(CN3CCc4c(C(=O)NCc5ccc(C#N)cc5)nn(C)c4C3=O)CC2)C1 (single isomer, unassigned) [Example 111] ) is 5

====

target-desc: CMV-polymerase (Human cytomegalovirus (strain AD169) (HHV-5) (Human herpesvirus 5), UniProt P08546)
procedure-details: biochemical
condition-info: CMV-polymerase Biochemical IC50
Rule: measured IC50 below 6 nM gets 1 (yes); anything equal to or greater than 6 nM gets 0 (no).

1. Cn1nc(C2=NO[C@H](c3ccc(C#N)cc3)C2)c2c1C(=O)N(CC1(S(=O)(=O)C3CC3)CC1)CC2 [Example 33]	0 (no)

In plain terms, does O=C(NCc1ccc(Cl)cc1)c1n[nH]c2c1CCN(CC1(S(=O)(=O)C3CC3)CC1)C2=O [Example 44] come in under 6 nM for IC50? 1 (yes)

API: query returns whether the compound falls strictly under 6 nM in IC50. Query: Cn1nc(C(=O)NCc2ccc(C#N)cc2)c2c1C(=O)N(CC1(S(=O)(=O)C(C)(C)CNC=O)CC1)CC2 [Example 71] 1 (yes)

API: query returns whether the compound falls strictly under 6 nM in IC50. Query: Cn1nc(C(=O)NCc2ccc(C#N)cc2)c2c1C(=O)N(CC1(S(=O)(=O)C(C)(C)C(O)C(C)(C)N)CC1)CC2 (single isomer, unassigned) [Example 211] 0 (no)

Strictly below 6 nM: is that where IC50 of Cn1nc(C(=O)NCc2ccc(C#N)cc2)c2c1C(=O)N(CC1(S(=O)(=O)C(C)(C)COC(F)CO)CC1)CC2 (single isomer, unassigned) [Example 81] sits? 1 (yes)

====

target-desc: CMV-polymerase (Human cytomegalovirus (strain AD169) (HHV-5) (Human herpesvirus 5), UniProt P08546)
procedure-details: biochemical
condition-info: read-out: CMV-polymerase Biochemical IC50
measured-endpoint: IC50 (nM)
Hi! Could you send only the number? It should be in nM, unit omitted.

1) Cn1nc(C(=O)NCc2ccc(C#N)c(F)c2)c2c1C(=O)N(CC1(S(=O)(=O)C3CC3)CC1)CC2	1
2) Cn1nc(-c2cn(CC3CCC(F)(F)CC3)nn2)c2c1C(=O)N(CC1(S(=O)(=O)C3CC3)CC1)CC2	5
3) C[C@H](NC(=O)c1nn(C)c2c1CCN(CC1(S(=O)(=O)C3CC3)CC1)C2=O)c1ccc(C#N)cc1	13
4) Cn1nc(C(=O)NCc2ccc(Cl)cc2)c2c1C(=O)N(CC1(S(=O)(=O)C(C)(C)COCCN)CC1)CC2	1
5) Cn1nc(C(=O)NCc2ccc(C#N)cc2)c2c1C(=O)N(CC1(S(=O)(=O)C(C)(C)CNCCO)CC1)CC2	1

// recorded IC50 for "COc1ccc(C)nc1NS(=O)(=O)C1(CN2CCc3c(C(=O)NCc4ccc(C#N)cc4)nn(C)c3C2=O)CC1" : 6

Recorded IC50 (compound "Cn1nc(C(=O)NCc2ccc(C#N)cc2)c2c1C(=O)N(CC1(S(=O)(=O)N3CC[C@H](N)C3)CC1)CC2" ): 18

The reported IC50 of the compound "Cn1nc(C(=O)NCc2ccc(F)cc2)c2c1C(=O)N(CC1(S(=O)(=O)C(C)(C)CO)CC1)CC2" was 7

// recorded IC50 for "Cn1nc(C(=O)NCc2ccc(C#N)cc2)c2c1C(=O)N(CC1(S(=O)(=O)NCCO)CC1)CC2" : 14

Per the record, "Cn1nc(C(=O)NCc2ccc(C#N)cc2)c2c1C(=O)N(CC1(S(=O)(=O)C(C)(CO)CO)CC1)CC2" has IC50 of 2

====

target-desc: CMV-polymerase (Human cytomegalovirus (strain AD169) (HHV-5) (Human herpesvirus 5))
procedure-details: biochemical
condition-info: CMV-polymerase Biochemical IC50
measured-endpoint: IC50 (nM)
Just the number please, in nM, no unit attached.

Below, each entry is followed by its recorded IC50 result.
1. Cn1nc(C(=O)NCc2ccc(C#N)cc2)c2c1C(=O)N(CC1(S(=O)(=O)Nc3ccccn3)CC1)CC2 [Example 155]	2
2. Cn1nc(C2=NOC(c3ccc(C#N)cc3)C2)c2c1C(=O)N(CC1(S(=O)(=O)C3CC3)CC1)CC2 (stereo not shown) [Example 31]	12
3. N#Cc1ccc(CNC(=O)c2nn(CC3(CO)CC3)c3c2CCN(CC2(S(=O)(=O)C4CC4)CC2)C3=O)cc1 [Example 47]	2

Measured IC50 (CMV-polymerase (Human cytomegalovirus (strain AD169) (HHV-5) (Human herpesvirus 5))), entry CC(O)Cn1nc(C(=O)NCc2ccc(C#N)cc2)c2c1C(=O)N(CC1(S(=O)(=O)C3CC3)CC1)CC2 (single isomer, unassigned) [Example 225] : 4

Reported CMV-polymerase (Human cytomegalovirus (strain AD169) (HHV-5) (Human herpesvirus 5)) IC50 for item Cn1nc(C(=O)NCc2ccc(C#N)cc2)c2c1C(=O)N(CC1(S(=O)(=O)C(C)(C)CN)CC1)CC2 [Example 70] was 3

Response field IC50 (CMV-polymerase (Human cytomegalovirus (strain AD169) (HHV-5) (Human herpesvirus 5))) for item CC(O)COCC(C)(C)S(=O)(=O)C1(CN2CCc3c(C(=O)NCc4ccc(C#N)cc4)nn(C)c3C2=O)CC1 (single isomer, unassigned) [Example 91] : 5

Record Cn1nc(C(=O)COc2ccc(C#N)cc2)c2c1C(=O)N(CC1(S(=O)(=O)C3CC3)CC1)CC2 [Example 25] / CMV-polymerase (Human cytomegalovirus (strain AD169) (HHV-5) (Human herpesvirus 5)), IC50 recorded as 2

Hey, just so you know, these numbers are from patent US12338220B2.
